- measured.target: Transitional endoplasmic reticulum ATPase (Homo sapiens) (UniProt P55072)
- Sequence (P55072 whole entry, looked up): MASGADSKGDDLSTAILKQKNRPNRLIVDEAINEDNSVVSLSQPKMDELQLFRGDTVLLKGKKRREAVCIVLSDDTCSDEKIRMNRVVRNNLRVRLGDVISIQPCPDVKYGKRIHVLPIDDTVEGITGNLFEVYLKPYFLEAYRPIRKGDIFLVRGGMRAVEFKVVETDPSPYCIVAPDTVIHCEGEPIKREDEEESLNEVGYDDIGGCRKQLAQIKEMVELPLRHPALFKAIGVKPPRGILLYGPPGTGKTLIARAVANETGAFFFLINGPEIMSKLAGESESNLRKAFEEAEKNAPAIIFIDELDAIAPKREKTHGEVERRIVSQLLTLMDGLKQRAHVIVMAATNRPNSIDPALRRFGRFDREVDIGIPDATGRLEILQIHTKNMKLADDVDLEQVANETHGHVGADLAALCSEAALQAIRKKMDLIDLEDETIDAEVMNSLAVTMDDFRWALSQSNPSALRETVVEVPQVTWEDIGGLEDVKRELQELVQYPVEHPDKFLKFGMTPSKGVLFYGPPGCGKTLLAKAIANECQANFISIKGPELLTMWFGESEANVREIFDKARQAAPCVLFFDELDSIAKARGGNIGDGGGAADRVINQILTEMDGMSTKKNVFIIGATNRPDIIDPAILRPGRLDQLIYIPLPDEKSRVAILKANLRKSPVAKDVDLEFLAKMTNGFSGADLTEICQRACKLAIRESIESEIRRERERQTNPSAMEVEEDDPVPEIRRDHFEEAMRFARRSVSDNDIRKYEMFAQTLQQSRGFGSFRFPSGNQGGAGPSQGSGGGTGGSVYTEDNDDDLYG
- experimental.protocol: VCP ATP hydrolysis inhibition, purified enzyme – biochemical, dose response, round 3, SAR follow-up (AID 504650)
- condition.info: purified p97 ATPase, Kinase-Glo luminescence
property.name: IC50

[[record]]
smiles_data = "COc1cccc2c(NCC3CCCCC3)nc(N3CCOc4ccccc43)nc12"
measured_target = "Transitional endoplasmic reticulum ATPase (Homo sapiens) (UniProt P55072)"
data_value = "7400 nM"

[[record]]
smiles_data = "COc1cccc2c(NCc3cccs3)nc(N3CCOc4ccccc43)nc12"
measured_target = "Transitional endoplasmic reticulum ATPase (Homo sapiens) (UniProt P55072)"
data_value = "1200 nM"

[[record]]
smiles_data = "CCN(CC)CCOc1cccc2c(NCc3ccccc3)nc(N3CCOc4ccccc43)nc12"
measured_target = "Transitional endoplasmic reticulum ATPase (Homo sapiens) (UniProt P55072)"
data_value = "400 nM"

[[record]]
smiles_data = "COc1cccc2c(NCc3ccccc3)nc(Nc3nc4ccccc4s3)nc12"
measured_target = "Transitional endoplasmic reticulum ATPase (Homo sapiens) (UniProt P55072)"
data_value = "500 nM"


Recall the recorded IC50 for COc1cccc2c(NCc3ccccc3)nc(N3CCN(C(C)=O)c4ccccc43)nc12 with Transitional endoplasmic reticulum ATPase (Homo sapiens) (UniProt P55072) and state it. 2700 nM

====

- measured.target: Transitional endoplasmic reticulum ATPase (Homo sapiens) (UniProt P55072)
- experimental.protocol: VCP ATP hydrolysis inhibition, purified enzyme – biochemical, dose response, round 3, SAR follow-up (AID 504650)
- condition.info: purified p97 ATPase, Kinase-Glo luminescence
The source made the active and inactive calls.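 The calls were made as follows: active = IC50 at or below 10 µM; inactive = the rest.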
Select the correct class. Options are active, inactive and nothing else.

Which result was noted for this compound in the test: c1ccc(CNc2nc(N3CCc4ccccc4C3)nc3ccccc23)cc1 inactive

Again, but for COc1cccc2c(NCc3ccccc3)nc(-n3cnc4ccccc43)nc12 active

Queued: COc1cccc2c(NCc3ccccc3)nc(Nc3cc(C)cc(F)c3)nc12 active

Lookup COc1cccc2c(NCc3ccccc3)nc(-n3c(N)nc4cc(Br)ccc43)nc12 active

What about COc1cccc2c(NCc3ccccc3)nc(N3CCOc4ccccc43)nc12 ? active

Note, next up: COc1cccc2c(NCc3ccccc3)nc(N3CCN(C(C)=O)CC3)nc12 inactive

Quick one: COc1cccc2c(NCc3ccccc3)nc(-n3c(N)nc4cc(F)ccc43)nc12 active

====

- measured.target: Transitional endoplasmic reticulum ATPase (Homo sapiens) (UniProt P55072)
- experimental.protocol: VCP ATP hydrolysis inhibition, purified enzyme – biochemical, dose response, round 3, SAR follow-up (AID 504650)
- condition.info: purified p97 ATPase, Kinase-Glo luminescence
The source made the active and inactive calls.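 Rule for the calls: active = IC50 at or below 10 µM; inactive = the rest.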
The reply should be one of these categories: 1 for active, 0 for inactive

[[record]]
compound = "COc1cccc2c(NCc3ccccc3)nc(NCC3CCCCC3)nc12"
answer_label = 1

[[record]]
compound = "COc1cccc2c(NCc3ccccc3)nc(N3CCOCC3)nc12"
answer_label = 0

[[record]]
compound = "COc1cccc2c(NCc3ccccc3)nc(NCc3cccs3)nc12"
answer_label = 1


Hey, what did the test say about COc1cccc2c(NCc3ccccc3)nc(-n3c(N)nc4c(C)cccc43)nc12 ? 1

Another: COc1cccc2c(NCc3ccccc3)nc(N3CCNc4ccccc43)nc12 1

====

- measured.target: Transitional endoplasmic reticulum ATPase (Homo sapiens)
- experimental.protocol: VCP ATP hydrolysis inhibition, purified enzyme – biochemical, dose response, round 3, SAR follow-up (AID 504650)
- condition.info: purified p97 ATPase, Kinase-Glo luminescence
Calls of active or inactive are those of the source.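 The calls were made as follows: active = IC50 at or below 10 µM; inactive = the rest.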
API: response.call in 1 (active), -1 (inactive)

Solved cases (2 shown):
[[record]]
smiles_data = "c1ccc(CNc2nc(N3CCOc4ccccc43)nc3ccsc23)cc1"
answer_label = 1

[[record]]
smiles_data = "CCCCOc1cccc2c(NCc3ccccc3)nc(N3CCOc4ccccc43)nc12"
answer_label = 1


Identify the outcome logged in this assay for the compound shown: COc1cccc2c(NCc3ccccc3)nc(-n3c(N)nc4cc(C)c(C)cc43)nc12 1

Field entry: c1ccc(CNc2nc(N3CCOc4ccccc43)nc3c2CCCC3)cc1 1

Consider next the compound c1ccc(CNc2ccnc(N3CCOc4ccccc43)n2)cc1 in the same way. 1

# repeat for COc1ccc(-c2cccc3c(NCc4ccccc4)nc(N4CCOc5ccccc54)nc23)cc1 1

Now try Clc1ccccc1-c1nc(N2CCCc3ccccc32)c2ccccc2n1 . -1

Record: COc1cccc2c(NCc3ccccc3)nc(N3CCN(C)c4ccccc43)nc12 1

Can you handle COc1cccc2c(NCc3ccccc3)nc(N3CCN(C)CC3)nc12 next? -1

Thanks! And COc1cccc2c(NCc3ccc(F)cc3)nc(N3CCOc4ccccc43)nc12 ? 1

====

- measured.target: Transitional endoplasmic reticulum ATPase (Homo sapiens)
- experimental.protocol: VCP ATP hydrolysis inhibition, purified enzyme – biochemical, dose response, round 3, SAR follow-up (AID 504650)
- condition.info: purified p97 ATPase, Kinase-Glo luminescence
Calls of active or inactive are those of the source.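 Rule for the calls: active = IC50 at or below 10 µM; inactive = the rest.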
Returns: one label drawn from active, inactive

For orientation, consider the following solved cases.
[[record]]
smiles_data = "COc1cccc2c(NCc3ccccc3)nc(-n3c(N)nc4cc(C)ccc43)nc12"
answer_label = "active"

[[record]]
smiles_data = "COc1cccc2c(NCc3ccccc3)nc(NC(=O)Nc3ccccc3)nc12"
answer_label = "inactive"

[[record]]
smiles_data = "COc1cccc2c(NCc3ccccc3)nc(Nc3cccc(Cl)c3)nc12"
answer_label = "active"

[[record]]
smiles_data = "COc1cccc2c(NCc3ccccc3)nc(Nc3cccc(F)c3)nc12"
answer_label = "active"

[[record]]
smiles_data = "COc1ccc2c(c1)nc(N)n2-c1nc(NCc2ccccc2)c2cccc(OC)c2n1"
answer_label = "active"

[[record]]
smiles_data = "Nc1nc2ccccc2n1-c1nccc(NCc2ccccc2)n1"
answer_label = "active"

[[record]]
smiles_data = "c1ccc(CNc2nc(N3CCOc4ccccc43)nc3c(-c4ccccc4)cccc23)cc1"
answer_label = "active"

[[record]]
smiles_data = "c1ccc2c(c1)OCCN2c1nc(N2CCOc3ccccc32)c2ccccc2n1"
answer_label = "inactive"


Given COc1cccc2c(NCc3ccc(O)cc3)nc(N3CCOc4ccccc43)nc12 , state the outcome it received in this test. active

And for Cc1nc(N2CCOc3ccccc32)nc(NCc2ccccc2)c1C ? active

====

- measured.target: UniProtKB P55072
- experimental.protocol: VCP ATP hydrolysis inhibition, purified enzyme – biochemical, dose response, round 3, SAR follow-up (AID 504650)
- condition.info: purified p97 ATPase, Kinase-Glo luminescence
The source made the active and inactive calls.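 How the source made its calls: active means IC50 at or below 10 µM; inactive means the rest.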
property.name: IC50

Take a look at these entries with their results.
[[record]]
smiles_data = "COc1cccc2c(NCc3ccccc3)nc(-n3c(N)nc4ccccc43)nc12"
measured_target = "UniProtKB P55072"
property_name = "IC50"
data_value = "110 nM"

[[record]]
smiles_data = "CC(C)Nc1nc(Nc2cccc(Cl)c2)nc2ccccc12"
measured_target = "UniProtKB P55072"
property_name = "IC50"
data_value = "> 30000 nM (inactive)"

[[record]]
smiles_data = "COc1cccc2c(NCc3ccccc3)nc(-n3c(N)nc4cc(Cl)ccc43)nc12"
measured_target = "UniProtKB P55072"
property_name = "IC50"
data_value = "700 nM"

[[record]]
smiles_data = "COc1cccc2c(NCc3ccccc3)nc(-n3c(=O)oc4ccccc43)nc12"
measured_target = "UniProtKB P55072"
property_name = "IC50"
data_value = "110 nM"


Which IC50 reading was recorded for the compound Nc1nc2ccccc2n1-c1nc2c(c(NCc3ccccc3)n1)CCCC2 ? 50 nM

Check COc1cccc2c(NCc3ccccc3)nc(N(C)Cc3ccccc3)nc12 too. 7000 nM

Can you check COc1cccc2c(NCc3ccccc3O)nc(N3CCOc4ccccc43)nc12 next? 4600 nM

Queued: CN(c1ccccc1)c1nc(NCc2ccccc2)c2ccccc2n1 > 30000 nM (inactive)

Request: COc1cccc2c(NCc3ccccc3)nc(Nc3ccccc3O)nc12 2600 nM

Same lookup for OCCOc1cccc2c(NCc3ccccc3)nc(N3CCOc4ccccc43)nc12 , please. 170 nM

Can you check COc1cccc2c(NCc3ccccn3)nc(N3CCNc4ccccc43)nc12 next? > 30000 nM (inactive)

Request: COCCOc1cccc2c(NCc3ccccc3)nc(N3CCOc4ccccc43)nc12 600 nM

====

- measured.target: Transitional endoplasmic reticulum ATPase (Homo sapiens) (UniProt P55072)
- experimental.protocol: VCP ATP hydrolysis inhibition, purified enzyme – biochemical, dose response, round 3, SAR follow-up (AID 504650)
- condition.info: purified p97 ATPase, Kinase-Glo luminescence
Activity calls are given as the source filed them.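 How the source made its calls: active means IC50 at or below 10 µM; inactive means the rest.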
Respond with a class label; see active, inactive

Before answering, review these 5 worked examples.
[[record]]
compound = "COc1cccc2c(NCc3ccccc3)nc(NC(C)c3ccccc3)nc12 (stereo unspecified)"
answer_label = "inactive"

[[record]]
compound = "Oc1cccc2c(NCc3ccccc3)nc(N3CCOc4ccccc43)nc12"
answer_label = "active"

[[record]]
compound = "N#CCOc1cccc2c(NCc3ccccc3)nc(N3CCOc4ccccc43)nc12"
answer_label = "active"

[[record]]
compound = "Nc1nc2ccccc2n1-c1nc(NCc2ccccc2)c2ccccc2n1"
answer_label = "active"

[[record]]
compound = "COc1cccc2c(NCc3ccccc3)nc(Nc3nc4ccccc4n3C)nc12"
answer_label = "active"


Read the next record carefully.
How did this test come out for COc1cccc2c(NCc3ccccc3)nc(NCc3cncs3)nc12 ? inactive
